Molecular target: human GST-p38 kinase alpha (Homo sapiens, UniProt Q16539)
Construct: made in house; host or cells: E. coli DH10B
Sequence (Q16539 whole entry): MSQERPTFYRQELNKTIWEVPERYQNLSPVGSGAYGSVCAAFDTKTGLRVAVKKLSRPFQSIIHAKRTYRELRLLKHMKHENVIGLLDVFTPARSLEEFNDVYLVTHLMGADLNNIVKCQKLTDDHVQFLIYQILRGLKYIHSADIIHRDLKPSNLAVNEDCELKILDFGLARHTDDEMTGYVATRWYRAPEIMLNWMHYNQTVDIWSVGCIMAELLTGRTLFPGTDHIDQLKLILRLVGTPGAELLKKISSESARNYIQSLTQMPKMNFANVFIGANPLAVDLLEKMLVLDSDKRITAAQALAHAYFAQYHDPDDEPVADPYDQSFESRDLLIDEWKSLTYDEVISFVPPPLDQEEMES
Test: p38 kinase in vitro assay, second format, phosphorylation of EGFRP with 33P-ATP
Assay type: biochemical
Conditions: Table 9; 10% DMSO; read-out: p38α Kinase Assay IC50
outcome measure: IC50 (nM)
Give bare numbers, in nM.

Task: Fill blank: measured IC50 of the compound O[C@H]1CC[C@H](Nc2cc(-c3c[nH]nc3-c3ccc(F)cc3)ccn2)CC1 [Example A-386] is ____.
Result: 16

====

Target: human p38 kinase alpha (Homo sapiens, UniProt Q16539)
Construct: GST (N, cleaved yes); made in house; host or cells: E. coli DH10B
Sequence (Q16539 whole entry): as above
Experiment: p38 kinase in vitro assay, phosphorylation of biotinylated PHAS-I with 32P-ATP
Assay type: biochemical
Conditions: in vitro P38-alpha kinase inhibition; read-out: P38 alpha kinase IC50
outcome measure: IC50

A selection of reference data follows.
O=C(NCCc1[nH]nc(-c2ccc(F)cc2)c1-c1ccncc1)c1c(F)cc(F)cc1F [Example B-1135] ... 230 nM
CC(NC(=O)NC(C)c1[nH]nc(-c2ccc(F)cc2)c1-c1ccncc1)c1ccccc1 (centres unmarked) [Example B-0591] ... 3590 nM
CC(NS(=O)(=O)c1ccccc1S(C)(=O)=O)c1[nH]nc(-c2ccc(F)cc2)c1-c1ccncc1 (centres unmarked) [Example B-0666] ... 170 nM

Items follow; give IC50 for each.
1. COc1ccc(S(=O)(=O)NC(Cc2ccccc2)c2[nH]nc(-c3ccc(F)cc3)c2-c2ccncc2)cc1 (centres unmarked) [Example B-0764]
2. CC(Oc1ccccc1)C(=O)NC(C)c1[nH]nc(-c2ccc(F)cc2)c1-c1ccncc1 (centres unmarked) [Example B-0558]

Result:
1. 670 nM
2. 850 nM

====

Tested on: TNF-a, human peripheral blood mononuclear cells
Experiment: LPS stimulation of human PBMs, TNF-a by ELISA
Type: cell-based
Details: PBMC; Table 5; LPS-stimulated human PBM cells, TNF cell assay
outcome measure: IC50 (nM)
Give bare numbers, in nM.

Task: Query (compound): Cc1[nH]nc(-c2ccc(Cl)cc2)c1-c1ccncc1 ; field requested: IC50
Result: 200

====

Target: human p38 kinase alpha (Homo sapiens, UniProt Q16539)
Construct: GST (N, cleaved yes); made in house; host or cells: E. coli DH10B
Assay: p38 kinase in vitro assay, phosphorylation of biotinylated PHAS-I with 32P-ATP
Format: biochemical
Conditions: in vitro P38-alpha kinase inhibition; read-out: P38 alpha kinase IC50
outcome measure: pIC50
One number for each entry, as −log10 of the molar value.

Examples with their reported pIC50 follow.
CC(C)COC(=O)NC(Cc1ccccc1)c1[nH]nc(-c2ccc(F)cc2)c1-c1ccncc1 (centres unmarked) [Example B-0826] ... 5.76
O=C(NCc1ccc(S(=O)(=O)NCCc2[nH]nc(-c3ccc(F)cc3)c2-c2ccncc2)s1)c1ccccc1 [Example B-1108] ... 6.66
CC(NC(=O)c1ccno1)c1[nH]nc(-c2ccc(F)cc2)c1-c1ccncc1 (centres unmarked) [Example B-0541] ... 5.49
CNC(=O)CCC(NC(=O)c1ccccc1F)c1[nH]nc(-c2ccc(F)cc2)c1-c1ccncc1 (centres unmarked) [Example B-0874] ... 5.72
CCOC(=O)NC(C)c1[nH]nc(-c2ccc(F)cc2)c1-c1ccncc1 (centres unmarked) [Example B-0603] ... 7.05

Let us examine a further case.
Task: Which pIC50 value belongs to CCCS(=O)(=O)NC(C)c1[nH]nc(-c2ccc(F)cc2)c1-c1ccncc1 (centres unmarked) [Example B-0570] ?
Result: 6.57

====

Test system: TNF-α, rats challenged with LPS
Assay: Rat assay, LPS-stimulated TNF release
Type: in vivo
Conditions: Rattus norvegicus, po, 3 mpk oral gavage, −4 h before LPS challenge; read-out: Rat LPS Model % inhib @ dose @ predose time
Protocol: The efficacy of the novel compounds in blocking the production of TNF also was evaluated using a model based on rats challenged with LPS. Male Harlen Lewis rats [Sprague Dawley Co.] were used in this model. Each rat weighed approximately 300 g and was fasted overnight prior to testing. […] Serum samples were stored at −20° C. until quantitative analysis of TNF-α by Enzyme Linked-Immuno-Sorbent Assay (“ELISA”) [Biosource]. […]
outcome measure: inhibition in vivo at 3 mg/kg (%)
Answers are plain numbers, in %.

Sample answers from the record:
CC(NS(=O)(=O)c1ccc(Cl)s1)c1[nH]nc(-c2ccc(F)cc2)c1-c1ccncc1 (stereo not shown) ... 8
CC(NS(=O)(=O)c1cccc(Cl)c1)c1[nH]nc(-c2ccc(F)cc2)c1-c1ccncc1 (stereo not shown) ... 50
COc1ccc(S(=O)(=O)NC(C)c2[nH]nc(-c3ccc(F)cc3)c2-c2ccncc2)cc1 (stereo not shown) ... 37
O=C(c1ccc(F)cc1)N1CCC(c2[nH]nc(-c3ccc(F)cc3)c2-c2ccncc2)CC1 ... 54
O=C(C1CC1)N1CCC(c2[nH]nc(-c3ccc(F)cc3)c2-c2ccncc2)CC1 ... 17
CC(NC(=O)C(C)(C)C)c1[nH]nc(-c2ccc(F)cc2)c1-c1ccncc1 (stereo not shown) ... 43

--- query ---
Task: // inhibition in vivo at 3 mg/kg lookup, key: Cc1ccc(S(=O)(=O)NC(C)c2[nH]nc(-c3ccc(F)cc3)c2-c2ccncc2)cc1 (stereo not shown)
Result: 65

====

Target: human p38 kinase alpha (Homo sapiens)
Construct: GST (N, cleaved yes); made in house; host or cells: E. coli DH10B
Assay: p38 kinase in vitro assay, phosphorylation of biotinylated PHAS-I with 32P-ATP
Format: biochemical
Settings: in vitro P38-alpha kinase inhibition; read-out: P38 alpha kinase IC50
outcome measure: IC50

Solved cases (3 shown):
CCNC(=O)NC(Cc1ccccc1)c1[nH]nc(-c2ccc(F)cc2)c1-c1ccncc1 (stereo not shown) [Example B-0743] ... 1.2 µM
C[C@@H](NS(=O)(=O)c1ccc(Br)cc1)c1[nH]nc(-c2ccc(F)cc2)c1-c1ccncc1 [Example B-0432] ... < 0.1 µM
COc1ccccc1C(=O)NC(Cc1ccccc1)c1[nH]nc(-c2ccc(F)cc2)c1-c1ccncc1 (stereo not shown) [Example B-0811] ... 2.79 µM

Give measured IC50 for every item shown.
1. Cc1noc(C)c1S(=O)(=O)NC(C)c1[nH]nc(-c2ccc(F)cc2)c1-c1ccncc1 (stereo not shown) [Example B-0653]
2. N#Cc1ccccc1S(=O)(=O)NCCc1[nH]nc(-c2ccc(F)cc2)c1-c1ccncc1 [Example B-1078]
3. CC(NC(=O)c1c(Cl)cccc1Cl)c1[nH]nc(-c2ccc(F)cc2)c1-c1ccncc1 (stereo not shown) [Example B-0696]
4. COc1cccc(CC(=O)NC(C)c2[nH]nc(-c3ccc(F)cc3)c2-c2ccncc2)c1 (stereo not shown) [Example B-0550]

Result:
1: 2.01 µM; 2: 0.26 µM; 3: 0.085 µM; 4: 2.41 µM

====

System: TNF-α, U937 human histiocytic lymphoma cell line
Experiment: LPS stimulation of TNF production by U937 cells
Format: cell-based
Conditions: @ 1.0 uM; TNF production, U937 cells stimulated with LPS
Experimental: Maintenance and Differentiation of the U937 Human Histiocytic Lymphoma Cell Line: Fifty million cells in 100 ml media were induced to terminal monocytic differentiation by 24 hour incubation with 20 ng/ml phorbol 12-myristate 13-acetate (Sigma). […] Compounds were prepared as 10 mM stock solutions in DMSO and diluted in culture medium to yield a final DMSO concentration of 0.1% in the cell assay. […] Inhibitory potency is expressed as IC50 (μM). […]
Each entry gets not met if its U937 Cell % inhib @ conc. stays under 9 % @, and met if its U937 Cell % inhib @ conc. is 9 % @ or above.

See these solved cases before continuing.
O=C(NCc1[nH]nc(-c2ccc(F)cc2)c1-c1ccncc1)c1cccc(CCl)c1 ... met
O=C(NCc1[nH]nc(-c2ccc(F)cc2)c1-c1ccncc1)[C@@H]1CCCN1 ... met
CCOC(=O)C(CCSC)NC(=O)NCc1[nH]nc(-c2ccc(F)cc2)c1-c1ccncc1 (stereo not shown) ... met
CC1(C)C2CCC1(CS(=O)(=O)NCc1[nH]nc(-c3ccc(F)cc3)c1-c1ccncc1)C(=O)C2 (stereo not shown) ... not met
CCOC(=O)NC(=O)NCc1[nH]nc(-c2ccc(F)cc2)c1-c1ccncc1 ... met

Task: Could you verify whether the entry Cc1cccc(C(=O)NCc2[nH]nc(-c3ccc(F)cc3)c2-c2ccncc2)c1 shows U937 Cell % inhib @ conc. of no less than 9 % @?
Result: not met

Task: Do the same for O=C(NCc1[nH]nc(-c2ccc(F)cc2)c1-c1ccncc1)c1cccs1 please
Result: met

Task: Try this compound too: O=C(NCc1[nH]nc(-c2ccc(F)cc2)c1-c1ccncc1)c1ccc(F)cc1C(F)(F)F
Result: met

Task: Try this compound too: O=[N+]([O-])c1ccc(S(=O)(=O)NCc2[nH]nc(-c3ccc(F)cc3)c2-c2ccncc2)cc1
Result: not met
